Values were extracted from patent US20110059490.

Target desc: Taq DNA polymerase R536C/K540C/D610A/H784C (UniProt P19821 P19821:1-832, R536C,K540C,D610A,H784C)
Sequence (P19821 whole entry R536C/K540C/D610A/H784C, one chain of several): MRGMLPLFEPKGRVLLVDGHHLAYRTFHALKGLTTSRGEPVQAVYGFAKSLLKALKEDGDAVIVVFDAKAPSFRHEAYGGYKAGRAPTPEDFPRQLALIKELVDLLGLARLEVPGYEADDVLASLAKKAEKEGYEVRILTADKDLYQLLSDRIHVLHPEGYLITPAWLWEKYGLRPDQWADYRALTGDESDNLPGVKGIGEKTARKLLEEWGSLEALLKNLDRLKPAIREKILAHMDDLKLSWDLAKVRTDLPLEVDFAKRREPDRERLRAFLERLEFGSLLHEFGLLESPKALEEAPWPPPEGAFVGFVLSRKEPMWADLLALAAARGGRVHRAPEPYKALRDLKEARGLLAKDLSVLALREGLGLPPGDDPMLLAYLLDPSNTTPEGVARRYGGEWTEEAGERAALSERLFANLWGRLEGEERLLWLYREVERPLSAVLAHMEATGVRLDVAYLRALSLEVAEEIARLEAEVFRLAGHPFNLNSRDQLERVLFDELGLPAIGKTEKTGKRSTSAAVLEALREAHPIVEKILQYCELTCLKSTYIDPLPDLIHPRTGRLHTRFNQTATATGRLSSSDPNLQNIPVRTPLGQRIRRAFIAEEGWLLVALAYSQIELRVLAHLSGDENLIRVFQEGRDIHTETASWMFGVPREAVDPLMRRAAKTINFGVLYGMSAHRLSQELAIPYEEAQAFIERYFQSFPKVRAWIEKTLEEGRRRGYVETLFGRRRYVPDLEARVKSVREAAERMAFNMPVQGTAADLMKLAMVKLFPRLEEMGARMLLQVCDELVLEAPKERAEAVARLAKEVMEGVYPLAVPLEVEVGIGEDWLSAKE
Measurement notes: EMSA; 1x TAE with 2 mM EDTA, pH 8.3; above highest tested 1000 nM
Test parameters: tags: Fermentas; label: 5'-33P
Endpoint name: pKd
Please keep in mind that pKd is minus log10 of the molar concentration; only the number is needed.

Value lookup for pKd; key = TTTTAGCCGCTAGAGTCGACCTGC (ssDNA) [24 nt primer]
5.70
